biological target: AR (Homo sapiens, UniProt P10275, T878A); assay: Effects of compounds on AR expression in LNCaP cells (ELISA, DC50); format: cell-based; set-up: Measurement of the Effects of Drugs on the Expression of AR in Cells by ELISA Method; endogenous in cells; host or cells: LNCaP; settings: 24 hours of drug treatment, AR by ELISA
Sequence (P10275 whole entry T878A): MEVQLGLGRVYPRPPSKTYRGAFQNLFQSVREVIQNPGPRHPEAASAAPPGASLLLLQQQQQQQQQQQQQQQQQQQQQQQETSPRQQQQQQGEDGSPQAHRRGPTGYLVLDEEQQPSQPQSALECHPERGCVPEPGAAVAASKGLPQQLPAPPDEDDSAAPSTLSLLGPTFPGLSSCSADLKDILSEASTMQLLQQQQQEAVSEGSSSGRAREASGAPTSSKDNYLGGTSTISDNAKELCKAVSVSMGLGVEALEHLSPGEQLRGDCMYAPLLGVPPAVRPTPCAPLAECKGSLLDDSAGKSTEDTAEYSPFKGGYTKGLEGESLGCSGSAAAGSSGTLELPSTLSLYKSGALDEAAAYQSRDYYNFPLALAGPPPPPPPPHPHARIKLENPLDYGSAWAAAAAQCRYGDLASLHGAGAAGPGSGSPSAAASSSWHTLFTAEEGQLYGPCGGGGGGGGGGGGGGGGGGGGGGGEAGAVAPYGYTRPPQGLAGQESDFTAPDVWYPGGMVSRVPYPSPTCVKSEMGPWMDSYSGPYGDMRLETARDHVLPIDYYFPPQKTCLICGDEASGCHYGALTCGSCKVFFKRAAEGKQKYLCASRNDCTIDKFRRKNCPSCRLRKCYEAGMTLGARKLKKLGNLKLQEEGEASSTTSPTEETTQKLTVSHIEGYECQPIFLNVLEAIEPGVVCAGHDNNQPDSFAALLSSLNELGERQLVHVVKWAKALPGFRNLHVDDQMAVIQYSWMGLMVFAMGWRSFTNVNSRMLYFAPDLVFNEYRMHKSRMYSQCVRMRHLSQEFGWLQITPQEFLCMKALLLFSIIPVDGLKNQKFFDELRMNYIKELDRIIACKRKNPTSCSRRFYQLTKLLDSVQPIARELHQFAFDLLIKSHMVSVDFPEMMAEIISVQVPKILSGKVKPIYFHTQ
Listed below: DC50 values for each entry.
Answer format: number, then unit.

molecule: Cc1ncsc1-c1ccc(CNC(=O)[C@@H]2C[C@@H](O)CN2C(=O)[C@@H](NC(=O)COCCCOCCCCCOc2ccc(N3C(=S)N(c4ccc(C#N)c(C(F)(F)F)c4F)C(=O)C3(C)C)cn2)C(C)(C)C)cc1
DC50: 75.5 nM
--
molecule: CC(C)(C)[C@H](NC(=O)COCCCCOc1ccc(-c2ccc(N3C(=S)N(c4ccc(C#N)c(C(F)(F)F)c4F)C(=O)C3(C)C)cn2)cc1)C(=O)N1C[C@H](O)C[C@H]1c1nc(-c2cccnc2)c[nH]1
DC50: 173 nM
--
molecule: CC1(C)C(=O)N(c2ccc(C#N)c(C(F)(F)F)c2F)C(=S)N1c1cnc(-c2ccc(OC3CCN(C(=O)COc4cccc5c4C(=O)N(C4CCC(=O)NC4=O)C5=O)CC3)c(F)c2)c(F)c1 (stereo not shown)
DC50: 88.3 nM

DC50 for CC(C)(C)[C@H](NC(=O)COCCCCOc1c(F)cc(-c2ncc(N3C(=S)N(c4ccc(C#N)c(C(F)(F)F)c4F)C(=O)C3(C)C)cc2C(F)(F)F)cc1F)C(=O)N1C[C@H](O)C[C@H]1C(=O)NCc1ccccc1 ? 79.3 nM
